Target: Cytochrome P450 1A2 (Homo sapiens)
Experiment: Cytochrome panel assay with activity outcomes
Settings: recombinant CYP, pro-luciferin dealkylation, luminescence, p450-cyp1a2; series mostly up to 57.1 µM
Screen size: about 16,000 compounds; about 5,700 (36%) were called active. Not shown: some 24% with an inconclusive outcome. The call rests on the fitted dose curve; in most records, active means well fitted curve in the direction sought with a large enough effect; inconclusive means small, poorly fitted or top-dose-only effect, or effect the other way; inactive means no such curve, though single readings can be large or run the other way. The list shows a part of the results. Peptide text beside a SMILES is read from it. * marks the point of attachment. Cbz = O=C(OCc1ccccc1)*
Outcome codes: active, inactive

compound=CCn1c(-c2ccccc2Cl)nn(CC(=O)Nc2ccc(OC)cc2)c1=S class_label=inactive
compound="Cc1c(C(=O)NC2CCCc3ccccc32)oc2ccc(S(=O)(=O)N3CCOCC3)cc12 (configuration not stated)" class_label=inactive
compound=COc1ccc(C(=O)N2CCC3(CC2)CCN(c2ncccn2)CC3)cc1 class_label=inactive
compound=Cc1c(Cl)c([N+](=O)[O-])nn1Cc1ccc(C(=O)N/N=C\c2cc(Cl)ccc2O)o1 class_label=active
compound=COc1ccc(NC(=O)c2cc(-c3ccccc3Cl)no2)cc1 class_label=active
compound=Cc1onc(-c2ccccc2Cl)c1C(=O)NCC(=O)O class_label=inactive
compound="CC(=O)N1CCN(c2nc(C)nc3sc4c(c23)CCC(C)C4)CC1 (configuration not stated)" class_label=active
compound=N=c1nc(N2CCCCC2)cc(N)n1O class_label=inactive
compound=Cc1c(Cl)c([N+](=O)[O-])nn1Cc1ccc(C(=O)N/N=C\c2cccc(Br)c2)o1 class_label=active
compound="CC(C)[C@H](NC(=O)OCc1ccccc1)C(=O)N[C@H](C=O)Cc1ccccc1 (Cbz-Val-Phe-aldehyde)" class_label=inactive
compound=O=[N+]([O-])c1cccc(/C=N/Nc2cc(Cl)nc(-c3ccccc3)n2)c1 class_label=active
compound=CS(=O)(=O)N1CCN(c2ccccc2NC(=O)c2ccc(Br)o2)CC1 class_label=active
compound=NS(=O)(=O)c1cc(C(=O)O)cc(N2CCCC2)c1Oc1ccccc1 class_label=inactive
compound=CCCCn1c(SCC(=O)N2CCCC2)nc2c1c(=O)n(C)c(=O)n2C class_label=inactive
compound=N[C@@H](Cc1cc(CP(=O)(O)O)cc(-c2ccccc2Cl)c1)C(=O)O class_label=inactive
compound=CC(C)CN1CCC2(CC1)CCN(C(=O)c1cccc(F)c1)CC2 class_label=inactive
compound=CC1=C(CC(=O)O)c2cc(F)ccc2/C1=C\c1ccc(S(C)(=O)=O)cc1 class_label=active
compound=O=C(Nc1cc(C(F)(F)F)ccc1N1CCCCC1)c1ccc(Br)o1 class_label=active
compound=Cc1noc(NS(=O)(=O)c2ccc(NC(=O)c3ccc(Br)o3)cc2)c1C class_label=inactive
compound=Cc1cc(C)cc(OCC(=O)NNC(=O)c2cc(C)[nH]n2)c1 class_label=inactive
compound=O=P(O)(O)CCP(=O)(c1ccccc1)c1ccccc1 class_label=inactive
compound=O=C(Nc1ccccc1)c1cc(-c2ccccc2Cl)no1 class_label=active
